Measured LC50 at 48 h values are reported for all entries that follow.
assay: in vivo; settings: Balanus (=Amphibalanus) amphitrite (barnacle, cypris larvae), other: immersion of larvae in test solution in seawater;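 further: larvae held in 24-well plates with compound in seawater, dark, 48 h, settled larvae (attached plus metamorphosed) and dead or missing larvae counted microscopically as percent of total per well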

Prompt line: So what's the measured LC50 at 48 h for this one? O=C(c1c[nH]c2ccccc12)C(c1c[nH]c2ccccc12)c1c[nH]c2ccccc12 [Compound 5, 1,2,2-tri(1H-indol-3-yl) ethanone]
Response line: > 128 µM

Prompt line: Requested read-out: LC50 at 48 h. Entry: Oc1ccc(C(c2c[nH]c3ccccc23)c2c[nH]c3ccccc23)cc1 [Compound 8, 4-(di(1H-indol-3-yl)methyl) phenol]
Response line: > 148 µM

Prompt line: Which value of LC50 at 48 h has been reported for c1ccc2c(C(c3c[nH]c4ccccc34)c3c[nH]c4ccccc34)c[nH]c2c1 [Compound 4, tri(1H-indol-3-yl)methane] in the records?
Response line: > 138 µM

Prompt line: Looking for the measured LC50 at 48 h of CC(=O)Oc1ccc(C(c2c[nH]c3ccccc23)c2c[nH]c3ccccc23)cc1 [Compound 9] , can you help?
Response line: > 132 µM

Prompt line: So what does the record say about LC50 at 48 h for c1ccc(C(c2c[nH]c3ccccc23)c2c[nH]c3ccccc23)cc1 [Compound 7, 3,3′-(phenylmethylene) bis-1H-indole] ?
Response line: > 155 µM

Each recorded value in this set is attributed to patent US9591855B2.
